target: RPA heterotrimer (Rfa1-3) (Saccharomyces cerevisiae, UniProt P22336;P26754;P26755 1-621;1-273;1-122); experiment: competition; EC50; prebound labelled Poly(dT)30; 25 mM HEPES pH 8.0, 5% glycerol, 50 mM NaOAc, 150 mM NaCl, 7.5 mM MgCl2, 0.01% Tween 20; EMSA/DDE at 30°C; BLI without glycerol at ~23°C; conditions: protein: recombinant; tags: untagged; copies: 1;1;1; single strand
Sequence (P22336 whole entry, chain 1 of 3): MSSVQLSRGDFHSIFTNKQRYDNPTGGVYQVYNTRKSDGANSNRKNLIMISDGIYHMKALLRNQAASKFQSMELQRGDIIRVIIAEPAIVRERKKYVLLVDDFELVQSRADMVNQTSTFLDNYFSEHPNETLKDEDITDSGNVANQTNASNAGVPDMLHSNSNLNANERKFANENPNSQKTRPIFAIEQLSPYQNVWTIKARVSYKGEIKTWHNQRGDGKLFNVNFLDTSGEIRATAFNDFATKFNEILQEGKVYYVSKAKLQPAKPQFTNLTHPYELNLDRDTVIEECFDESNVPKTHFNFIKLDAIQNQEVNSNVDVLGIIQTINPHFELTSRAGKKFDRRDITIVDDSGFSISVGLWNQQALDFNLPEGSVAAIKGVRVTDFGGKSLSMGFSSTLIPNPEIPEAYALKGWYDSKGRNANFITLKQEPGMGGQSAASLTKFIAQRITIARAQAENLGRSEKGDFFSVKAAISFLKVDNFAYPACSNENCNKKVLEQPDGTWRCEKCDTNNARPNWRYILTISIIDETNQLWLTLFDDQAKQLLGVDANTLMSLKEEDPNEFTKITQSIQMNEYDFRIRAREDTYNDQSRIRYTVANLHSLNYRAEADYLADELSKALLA
Sequence (P26754 whole entry, chain 2 of 3): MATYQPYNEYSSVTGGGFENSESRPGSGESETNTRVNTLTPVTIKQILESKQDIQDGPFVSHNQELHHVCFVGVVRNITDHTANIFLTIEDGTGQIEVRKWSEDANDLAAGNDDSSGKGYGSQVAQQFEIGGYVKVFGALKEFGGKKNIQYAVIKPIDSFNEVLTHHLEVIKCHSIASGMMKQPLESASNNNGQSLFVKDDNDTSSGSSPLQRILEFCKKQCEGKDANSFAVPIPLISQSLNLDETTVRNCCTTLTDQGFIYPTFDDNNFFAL
Sequence (P26755 whole entry, chain 3 of 3): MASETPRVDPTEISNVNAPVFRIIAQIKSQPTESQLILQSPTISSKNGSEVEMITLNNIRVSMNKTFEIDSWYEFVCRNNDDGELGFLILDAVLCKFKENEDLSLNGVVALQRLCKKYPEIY
Endpoint name: pIC50
Schema: pIC50 number; meaning minus log10 of the concentration expressed in molar units.

Name the recorded pIC50 for GTGTGGGTGTGGTGTGGGTGTGGTGTGGGT (ssDNA) [Tel30G unlabelled (MB915)] .
8.29

meta.source: paper PMC11194072
